- Test system: Streptococcus pyogenes
- Test summary: Antibacterial activity against Streptococcus pyogenes C203
- Assay type: functional
Measure: log10(MIC) (log10 of the value in µg/mL)
Would you kindly interpret these values as log10 of MIC expressed in µg/mL?

Compound: CN1CCN(c2c(F)c(N)c3c(=O)c(C(=O)O)cn(C4CC4)c3c2F)CC1
Target under test: Streptococcus pyogenes
log10(MIC): -0.40

Any idea what log10(MIC) was measured for NCC1CCN(c2c(F)c(N)c3c(=O)c(C(=O)O)cn(C4CC4)c3c2F)C1 (stereo unspecified) ?
-2.52

Proceed to O=C(O)c1cn(C2CC2)c2cc(N3CCNCC3)c(F)cc2c1=O [CIPROFLOXACIN]
-0.10

Next record, please: Nc1c(F)c(N2CCNCC2)c(F)c2c1c(=O)c(C(=O)O)cn2C1CC1
-0.70

Then this compound: CCNCC1CCN(c2c(F)c(NC(C)=O)c3c(=O)c(C(=O)O)cn(C4CC4)c3c2F)C1 (stereo unspecified)
1.10

And what about the compound CC1COc2c(N3CCN(C)CC3)c(F)c(N)c3c(=O)c(C(=O)O)cn1c23 (stereo unspecified) ?
0.49

Next compound up: CC1COc2c(N3CCN(C)CC3)c(F)cc3c(=O)c(C(=O)O)cn1c23 (stereo unspecified) [OFLOXACIN]
-0.10

Now consider Nc1c(F)c(N2CCC(N)C2)c(F)c2c1c(=O)c(C(=O)O)cn2C1CC1 (stereo unspecified) and answer again.
-1.60

# iterate: CCNCC1CCN(c2c(F)cc3c(=O)c(C(=O)O)cn(C4CC4)c3c2F)C1 (stereo unspecified) [PD-117558]
-1.60
